- tgt: MMP-3 (Homo sapiens, UniProt P08254)
- Construct: Truncated Prostromelysin-257 was expressed in a soluble form in E.coli; made in house; host or cells: E. coli
- Sequence (P08254 100-274 limits assumed): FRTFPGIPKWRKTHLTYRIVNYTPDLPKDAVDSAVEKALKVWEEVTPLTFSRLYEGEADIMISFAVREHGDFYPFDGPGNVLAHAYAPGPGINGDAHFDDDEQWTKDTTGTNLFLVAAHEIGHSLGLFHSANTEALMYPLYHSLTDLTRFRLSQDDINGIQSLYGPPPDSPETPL
- test-details: Primary Thiopeptilide MMP-3 Inhibition Assay
- Format: biochemical
- experimental-parameters: at 5 μM; read-out: MMP-3 Thiopep. % inhibition
observable: inhibition at 5 µM (%)

Consider the worked cases shown below.
molecule	value-unit	meas-value
CC(=O)SCC(CC(=O)c1ccc(C)cc1)C(=O)O (centres unmarked) [Example 253, reference compound]	%	0
CC(C)C[C@H](CC(=O)c1ccc(-c2ccc(Cl)cc2)cc1)C(=O)O	%	13
CC(=O)SC(CC(=O)c1ccc(Oc2ccc(Cl)cc2)cc1)C(=O)O (centres unmarked) [Example 254, reference compound]	%	10
O=C(O)CCC(=O)c1ccc(-c2ccc(F)cc2)cc1 [Example 8, reference compound]	%	26
O=C(CC(Cc1ccc(-c2ccccc2)cc1)C(=O)O)c1ccc(-c2ccc(Cl)cc2)cc1 (centres unmarked)	%	7
C[C@H](C(=O)c1ccc(-c2ccc(Cl)cc2)cc1)[C@@H](C)C(=O)O (relative stereo)	%	10

[1] O=C(O)CCC(=O)c1ccc(-c2ccc(F)cc2F)cc1 [Example 11, reference compound]
[2] O=C(CC(CCCc1ccccc1)C(=O)O)c1ccc(-c2cc(Cl)cc(Cl)c2)cc1 (centres unmarked)
Which gives the smaller inhibition at 5 µM number: 1 or 2 ? The response must carry the label of the picked entry.
2
(2: 7%, 1: 14%)

###

- tgt: MMP-9 (Homo sapiens)
- Construct: from tissue; host or cells: human polymorphonuclear leukocytes (PMN) from whole blood (New York Blood Center), PMA-stimulated supernatant
- Sequence (P14780 107-707 limits assumed): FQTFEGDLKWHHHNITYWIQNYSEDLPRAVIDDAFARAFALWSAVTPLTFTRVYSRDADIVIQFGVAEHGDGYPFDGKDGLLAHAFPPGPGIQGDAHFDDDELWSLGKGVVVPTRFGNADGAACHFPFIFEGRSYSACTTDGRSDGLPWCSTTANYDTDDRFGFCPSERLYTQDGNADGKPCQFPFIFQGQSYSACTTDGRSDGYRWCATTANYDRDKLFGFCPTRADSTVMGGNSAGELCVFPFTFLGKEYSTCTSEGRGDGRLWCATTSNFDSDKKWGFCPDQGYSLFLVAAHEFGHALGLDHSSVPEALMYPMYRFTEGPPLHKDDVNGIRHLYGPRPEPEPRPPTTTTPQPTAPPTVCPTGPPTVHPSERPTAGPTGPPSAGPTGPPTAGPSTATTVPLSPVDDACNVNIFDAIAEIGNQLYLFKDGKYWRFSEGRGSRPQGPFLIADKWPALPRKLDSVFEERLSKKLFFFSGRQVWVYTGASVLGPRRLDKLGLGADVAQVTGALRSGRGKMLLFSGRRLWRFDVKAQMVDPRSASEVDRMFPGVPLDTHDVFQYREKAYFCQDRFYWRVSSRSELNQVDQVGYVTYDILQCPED
- test-details: Automated MMP Profiling Assay, MMP-9 fluorogenic
- Format: biochemical
- experimental-parameters: at 5 μM
observable: inhibition at 5 µM (%)
Report only the number, with the unit % understood.

Consider the worked cases shown below.
molecule	value-unit	inhibition at 5 µM
O=C(CC(CCCc1ccccc1)C(=O)O)c1ccc(-c2ccc(OCc3ccc(C(F)(F)F)cc3)cc2)cc1 (stereo not drawn) [Example 104]	%	18
CCCCCSc1ccc(-c2ccc(C(=O)CC(CCCc3ccccc3)C(=O)O)cc2)cc1 (stereo not drawn) [Example 72]	%	22
O=C(CC(CCCc1ccccc1)C(=O)O)c1ccc(-c2ccc(CCc3ccccc3)cc2)cc1 (stereo not drawn) [Example 359]	%	16
O=C(C[C@@H](CCCc1ccccc1)C(=O)O)c1ccc(-c2ccc(OCc3ccccc3)cc2)cc1 [Example 101]	%	10
CC(=O)OC[C@@H]1C[C@@H](C(=O)c2ccc(-c3ccc(Cl)cc3)cc2)[C@H]1C(=O)O (relative stereo) [Example 397]	%	40

Now take the following molecule into account.
Return reported inhibition at 5 µM. Input molecule: CCCCCOc1ccc(-c2ccc(C(=O)[C@@H]3CC[C@H](Cc4ccccc4)[C@H]3C(=O)O)cc2)cc1 [Example 325]
0

###

- tgt: MMP-3 (Homo sapiens, UniProt P08254)
- Construct: Truncated Prostromelysin-257 was expressed in a soluble form in E.coli; made in house; host or cells: E. coli
- test-details: Secondary P218 Quenched fluorescence Assay for MMP-3 Inhibition
- Assay type: biochemical
- experimental-parameters: P218 substrate, pH 6.5, 25° C.; x (n) = average of n determinations; read-out: MMP-3 Fluorogenic IC50
- Experimental: Truncated Prostromelysin-257 was expressed in a soluble form in E.coli as described by Marcy et al., Biochemistry, 30, 6476-6483, 1991. […] The assay is run continuously in a 3.0 ml cuvette using a Perkin-Elmer LS 50 B Spectrofluorimeter at 25° C. in a final volume of 2.0 mls. […] Upon peptide cleavage, the fluorescent MCA group was detected using an excitation wavelength of 328 nanometers and an emission wavelength of 393 nanometers.
pIC50: −log10 of the molar value.
observable: pIC50

compound	tgt	meas-value
O=C(CC(CCCc1ccccc1)C(=O)O)c1ccc(-c2ccc(Cl)cc2)cc1 (stereo not shown)	MMP-3 (Homo sapiens, UniProt P08254)	6.92

[a] O=C(CC(CCCc1ccccc1)C(=O)O)c1ccc(-c2ccccc2)cc1 (stereo not shown)
[b] CC(C)CC(CC(=O)c1ccc(-c2ccc(Br)cc2)cc1)C(=O)O (stereo not shown)
[c] CCCCCC(CC(=O)c1ccc(-c2ccc(Cl)cc2)cc1)C(=O)O (stereo not shown)
Rank order required: pIC50, descending. Labels, requested order.
c, b, a

Source: patent US5789434A
